Where do the numbers come from? From patent US20070014720A1.

Molecular target: T1, human CD20 (human, UniProt P11836 1-297)
T1 sequence (looked up): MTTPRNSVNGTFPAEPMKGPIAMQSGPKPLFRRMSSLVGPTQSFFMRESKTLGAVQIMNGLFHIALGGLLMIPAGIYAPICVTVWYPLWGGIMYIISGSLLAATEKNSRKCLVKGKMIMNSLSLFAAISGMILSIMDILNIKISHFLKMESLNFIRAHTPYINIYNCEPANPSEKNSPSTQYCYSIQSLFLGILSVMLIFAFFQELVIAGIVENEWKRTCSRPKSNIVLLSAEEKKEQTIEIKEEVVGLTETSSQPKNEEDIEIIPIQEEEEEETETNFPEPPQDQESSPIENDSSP
Assay: cell-based or functional assay
Listed next: entries and their corresponding EC50 µg/ml Raji CDC.
Reported metric: EC50 µg/ml Raji CDC (µg/mL)

- Binder: "mAb 2.2.2 (antibody, human IgG1, V domains shown) VH: EVQLVQSGAEVKKPGESLKISCKGSGYSFTSYWIGWVRQMPGKGLEWMGIIYPGDSDTKYSPSFQGQVTISADKSISTAYLQWSSLKASDTAMYYCARQGDFWSGNGGMDVWGQGTTVTVSS VL: DIVMTQTPLSSPVTLGQPASISCRSSQSLVSRDGNTYLSWLQQRPGQPPRLLIYKISNRFSGVPDRFSGSGAGTDFTLKISRVEVEDVGVYYCMQATQFPITFGQGTRLEIK"
  Cmp: "="
  Numeric readout: 0.5
- Binder: "mAb 1.2.1 (antibody, human IgG1, V domains shown, Human IgG1 kappa; also called 1.2.1.1; 50-001H1_2_1_1) VH: EVQLVQSGAEVKKPGESLKISCKGSGYSFTSYWIGWVRQMPGKGLEWMGIIYPGDSDTRYSPSFQGQVTISADKSISTAYLQWSSLKASDTAMYYCARLGDYYNYYGMDVWGQGTTVTVSS VL: DIVMTQTPLSSPVTLGQPASISCRSSQSLVHSDGKTYLSWLQQRPGQPPRLLIYKSSNRFSGVPDRFSGSGAGTDFTLKISRVEAEDVGVYYCVQATQFPITFGQGTRLEIK"
  Cmp: ">"
  Numeric readout: 10
- Binder: "mAb 1.12.3 (antibody, human IgG1, V domains shown) VH: EVQLVQSGAEVKKPGESLKISCKGSGYSFTSYWIGWVRQMSGKGLEWMGIIYPGDSDTRYSPSFQGQVTISADKSISTAYLQWSSLKASDTAIYYCARHPSYGSGSPNFDYWGQGTLVTVSS VL: DIVMTQTPLSSPVTLGQPASISCRSSQSLVYSDGNTYLSWLQQRPGQPPRLLFYKISNRFSGVPDRFSGSGAGTDFTLKISRVEAEDVGVYYCVQATQFPLTFGGGTKVEIK"
  Cmp: "="
  Numeric readout: 1.31
